target_system: T1, GnRH Bio-peptide 1 (not fully specified)
T1 chain: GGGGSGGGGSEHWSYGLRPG
method: ELISA
pEC50: −log10 of the molar value.
recorded_endpoint: pEC50

binder="Clone 9 Ala scanning 4 (antibody, V domains shown) VH: EVQLVESGGGLVQSGGSLGLSCAASGRTFSGYAMGWFRQAPGKEREFVAAIRWSGGSTSYADSVKGRFTISRDNAKNTVYLQMNSLKPEDTAVYYCAADRGASGSYYYPDYWGQGTQVTVSS" recorded_endpoint=pEC50 result_number=7.29

I = Clone 9 Ala scanning 9 (antibody, V domains shown) VH: EVQLVESGGGLVQSGGSLGLSCAASGRTFSGYAMGWFRQAPGKEREFVAAIRWSGGSTSYADSVKGRFTISRDNAKNTVYLQMNSLKPEDTAVYYCAADRGPSGSYAYPDYWGQGTQVTVSS
II = Clone 9 Ala scanning 3 (antibody, V domains shown) VH: EVQLVESGGGLVQSGGSLGLSCAASGRTFSGYAMGWFRQAPGKEREFVAAIRWSGGSTSYADSVKGRFTISRDNAKNTVYLQMNSLKPEDTAVYYCAADRAPSGSYYYPDYWGQGTQVTVSS
III = Clone 9 Ala scanning 2 (antibody, V domains shown) VH: EVQLVESGGGLVQSGGSLGLSCAASGRTFSGYAMGWFRQAPGKEREFVAAIRWSGGSTSYADSVKGRFTISRDNAKNTVYLQMNSLKPEDTAVYYCAADAGPSGSYYYPDYWGQGTQVTVSS
Falling order of pEC50, please. Rank them, then answer with their labels in that order.
III, I, II
